The values you see were collected from ChEMBL document CHEMBL4270489.

Test system: A549
Test: Antiproliferative activity against human A549 cells incubated for 48 to 72 hrs by MTT assay
Assay type: functional, cell-based
experimental.readout: IC50

COc1c(O)cc2c(c1O)[C@@H]1O[C@H](COC(=O)/C=C/c3ccc(F)cc3)[C@@H](O)[C@H](O)[C@H]1OC2=O = > 100 µM

[Q] Given "O=c1[nH]cc(F)c(=O)[nH]1" , state its recorded IC50.
[A] 10.7 µM

[Q] # get_value(readout='IC50', item= "COc1c(O)cc2c(c1O)[C@@H]1O[C@H](COC(=O)/C=C/c3cc([N+](=O)[O-])cc([N+](=O)[O-])c3)[C@@H](O)[C@H](O)[C@H]1OC2=O" )
[A] > 100 µM

[Q] May I ask what IC50 has been recorded for "COc1c(O)cc2c(c1O)[C@@H]1O[C@H](COC(=O)/C=C/c3ccc(Cl)cc3)[C@@H](O)[C@H](O)[C@H]1OC2=O" ?
[A] > 100 µM

----------
System: A549
Assay: Antiproliferative activity against human A549 cells incubated for 48 to 72 hrs by MTT assay
Type: functional, cell-based
Each record here notes measured IC50.

Completed entries (count: 2):
COc1c(O)cc2c(c1O)[C@@H]1O[C@H](COC(=O)/C=C/c3ccc(C)c(C)c3)[C@@H](O)[C@H](O)[C@H]1OC2=O = > 100 µM
COc1c(O)cc2c(c1O)[C@@H]1O[C@H](COC(=O)/C=C/c3ccc([N+](=O)[O-])cc3)[C@@H](O)[C@H](O)[C@H]1OC2=O = > 100 µM

[Q] For the compound "COc1ccc(/C=C/C(=O)OC[C@H]2O[C@H]3c4c(cc(O)c(OC)c4O)C(=O)O[C@@H]3[C@@H](O)[C@@H]2O)cc1OC" , what IC50 is on record?
[A] > 100 µM

----------
compounds and their reported IC50
Test system: PC-3
Assay: Antiproliferative activity against human PC3 cells incubated for 48 to 72 hrs by MTT assay
Type: functional, cell-based

COc1c(O)cc2c(c1O)[C@@H]1O[C@H](COC(=O)/C=C/c3ccc([N+](=O)[O-])cc3)[C@@H](O)[C@H](O)[C@H]1OC2=O = > 100 µM
COc1c(O)cc2c(c1O)[C@@H]1O[C@H](CO)[C@@H](O)[C@H](O)[C@H]1OC2=O = > 100 µM

Shifting focus to the compound that follows.
[Q] # get_value(readout= IC50, system= PC-3) for "COc1c(O)cc2c(c1O)[C@@H]1O[C@H](COC(=O)/C=C/c3ccc(Cl)c(Cl)c3)[C@@H](O)[C@H](O)[C@H]1OC2=O"
[A] > 100 µM
